Experiment: Pharmacokinetics in SD rats after single oral and intravenous administration
Format: in vivo
Details: SD, plasma; rat, PO 10 mg/kg, time point 0.25 hr; read-out: Plasma drug concentration
Description: In this assay, the pharmacokinetic characteristics and ability to penetrate the blood-brain barrier of the compounds of the present application were assayed after administration of some of the compounds of the present application to SD rats by single oral administration and intravenous injection. • 1. […] Brains were weighed and homogenized by adding 4-fold homogenizing solution (acetonitrile/water=1/1). […] The supernatant was diluted 2-fold with ultra-pure water, and the samples were analyzed by LC/MS. […]
quantityKind: concentration at 0.25 hr
Remember to put the unit after the number in your answer.

Give me measured concentration at 0.25 hr, please, for this compound: COc1c(NC(=O)/C=C/CN(C)C)ccc2ncnc(Nc3cccc(Cl)c3F)c12 [Example 1]
83.2 ng/mL

* * *

assay: Pharmacokinetics in SD rats after single oral and intravenous administration; assay type: in vivo; conditions: SD, plasma; rat, PO 10 mg/kg, time point 24 hr; read-out: Plasma drug concentration
quantityKind: concentration at 24 hr

Read the entry COc1c(NC(=O)/C=C/CN(C)C)ccc2ncnc(Nc3cccc(Cl)c3F)c12 [Example 1] and write its reported concentration at 24 hr.
14.2 ng/mL

* * *

biological target: Ba/F3 EGFR D770_N771insSVD cells (Homo sapiens, UniProt P00533, DUP768-770, cells depend on it); assay: Inhibition of cell proliferation, CTG method, Ba/F3 EGFR D770_N771insSVD; format: cell-based; conditions: 72 hours, read-out: Ba/F3 EGFR D770_N771insSVD IC50
Sequence (P00533 with tags, fused parts or gaps DUP768-770): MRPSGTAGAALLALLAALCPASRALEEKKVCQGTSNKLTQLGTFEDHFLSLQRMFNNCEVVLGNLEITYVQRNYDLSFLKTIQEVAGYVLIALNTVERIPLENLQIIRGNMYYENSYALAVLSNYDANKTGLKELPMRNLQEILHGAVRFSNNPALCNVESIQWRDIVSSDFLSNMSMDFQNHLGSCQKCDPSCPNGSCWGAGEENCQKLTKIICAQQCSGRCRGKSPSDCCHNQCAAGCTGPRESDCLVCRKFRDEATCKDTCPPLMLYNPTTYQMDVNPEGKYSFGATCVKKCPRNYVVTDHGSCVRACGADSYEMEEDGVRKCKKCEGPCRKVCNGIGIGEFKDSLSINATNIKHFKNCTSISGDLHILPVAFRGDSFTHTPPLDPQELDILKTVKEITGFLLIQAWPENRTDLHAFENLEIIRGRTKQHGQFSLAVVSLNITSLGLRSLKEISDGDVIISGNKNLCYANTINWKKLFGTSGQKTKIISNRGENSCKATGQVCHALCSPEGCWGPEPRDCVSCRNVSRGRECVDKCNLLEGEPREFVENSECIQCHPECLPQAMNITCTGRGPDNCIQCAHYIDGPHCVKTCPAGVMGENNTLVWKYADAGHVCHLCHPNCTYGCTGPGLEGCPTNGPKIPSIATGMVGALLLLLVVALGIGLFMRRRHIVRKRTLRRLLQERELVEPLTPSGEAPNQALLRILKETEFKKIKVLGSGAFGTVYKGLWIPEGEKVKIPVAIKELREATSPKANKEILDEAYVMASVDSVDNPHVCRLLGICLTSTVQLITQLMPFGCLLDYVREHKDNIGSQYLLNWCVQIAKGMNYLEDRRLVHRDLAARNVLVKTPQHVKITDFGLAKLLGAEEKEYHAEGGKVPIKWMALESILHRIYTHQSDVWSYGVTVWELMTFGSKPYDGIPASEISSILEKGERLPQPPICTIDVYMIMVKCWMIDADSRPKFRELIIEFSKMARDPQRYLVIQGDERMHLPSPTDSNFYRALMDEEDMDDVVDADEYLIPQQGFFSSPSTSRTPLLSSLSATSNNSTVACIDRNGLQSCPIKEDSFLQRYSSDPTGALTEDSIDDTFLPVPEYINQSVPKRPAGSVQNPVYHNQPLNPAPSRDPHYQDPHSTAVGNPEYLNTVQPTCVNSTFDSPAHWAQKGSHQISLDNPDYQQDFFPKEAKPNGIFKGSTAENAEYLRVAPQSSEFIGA
// reported GI50 per item

INSERT INTO results (smilesstr, quantitykind, result) VALUES
  ('COc1c(NC(=O)/C=C/CN(C)C)ccc2ncnc(Nc3cccc(Cl)c3F)c12', 'GI50', '50 to 500 nM');

Give the measured GI50 for COCCCOc1c(NC(=O)/C=C/CN(C)C)ccc2ncnc(Nc3cccc(Cl)c3F)c12
50 to 500 nM

Answer with the recorded GI50 for the compound listed here: CN(C)C/C=C/C(=O)Nc1ccc2ncnc(Nc3cccc(Cl)c3F)c2c1OCCO
5 to 50 nM

Look up and report measured GI50 for this entry: COc1c(NC(=O)/C=C/CN(C)C2CC2)ccc2ncnc(Nc3cccc(Cl)c3F)c12
50 to 500 nM

Fill in GI50 for record CN(C)C/C=C/C(=O)Nc1ccc2ncnc(Nc3cccc(Cl)c3F)c2c1OCC(F)(F)F
50 to 500 nM

Please indicate GI50 recorded for CN(C)C/C=C/C(=O)Nc1ccc2ncnc(Nc3ccc(Cl)c(Cl)c3F)c2c1OCCO
5 to 50 nM

* * *

Test: Pharmacokinetics in SD rats after single oral and intravenous administration
Assay type: in vivo
Conditions: SD, plasma; rat, PO 10 mg/kg, time point 0 hr; read-out: Plasma drug concentration
Procedure: In this assay, the pharmacokinetic characteristics and ability to penetrate the blood-brain barrier of the compounds of the present application were assayed after administration of some of the compounds of the present application to SD rats by single oral administration and intravenous injection. • 1. […] Brains were weighed and homogenized by adding 4-fold homogenizing solution (acetonitrile/water=1/1). […] The supernatant was diluted 2-fold with ultra-pure water, and the samples were analyzed by LC/MS. […]
quantityKind: concentration at 0 hr (ng/mL)
Form entry: value (ng/mL) — number only.

Give concentration at 0 hr for the following compound: COc1c(NC(=O)/C=C/CN(C)C)ccc2ncnc(Nc3cccc(Cl)c3F)c12
0

* * *

test: Pharmacokinetics in SD rats after single oral and intravenous administration; format: in vivo; conditions: SD, plasma; rat, IV 3 mg/kg, time point 1 hr; read-out: Plasma drug concentration
quantityKind: concentration at 1 hr (ng/mL)
Provide the reading as a plain figure in ng/mL.

Read off the recorded concentration at 1 hr for COc1c(NC(=O)/C=C/CN(C)C)ccc2ncnc(Nc3cccc(Cl)c3F)c12
175

* * *

experiment: Pharmacokinetics in SD rats after single oral and intravenous administration; assay type: in vivo; conditions: SD, plasma; rat, PO 10 mg/kg
quantityKind: Tmax (h)
Dear colleague, please return just the value in h, with no unit written.

Using the record for COc1c(NC(=O)/C=C/CN(C)C)ccc2ncnc(Nc3cccc(Cl)c3F)c12 , state its measured Tmax.
1

* * *

molecular target: Ba/F3 EGFR D770_N771insSVD cells (Homo sapiens, UniProt P00533, DUP768-770, cells depend on it); assay: Inhibition of cell proliferation, CTG method, Ba/F3 EGFR D770_N771insSVD; type: cell-based; settings: 72 hours, read-out: Ba/F3 EGFR D770_N771insSVD IC50
Examples of molecules with documented GI50 follow.

Sample records with GI50:
INSERT INTO assay_data (molecule, result) VALUES
  ('COCCOc1c(NC(=O)/C=C/CN(C)C)ccc2ncnc(Nc3ccc(Cl)c(Cl)c3F)c12 [Example 23]', '50 to 500 nM'),
  ('CN(C)C/C=C/C(=O)Nc1ccc2ncnc(Nc3cccc(Cl)c3F)c2c1OCCC(F)(F)F [Example 18]', '50 to 500 nM'),
  ('COc1c(NC(=O)/C=C/CNC(C)C)ccc2ncnc(Nc3cccc(Cl)c3F)c12 [Example 9]', '5 to 50 nM'),
  ('CN1CCC[C@@H]1/C=C/C(=O)Nc1ccc2ncnc(Nc3ccc(Cl)c(Cl)c3F)c2c1OCCO [Example 22]', '5 to 50 nM'),
  ('COc1c(NC(=O)/C=C/CN(C)C)ccc2ncnc(Nc3ccc(Cl)c(Cl)c3F)c12 [Example 19]', '50 to 500 nM'),
  ('CC(C)Oc1c(NC(=O)/C=C/CN(C)C)ccc2ncnc(Nc3cccc(Cl)c3F)c12 [Example 10]', '50 to 500 nM'),
  ('CN(C)C/C=C/C(=O)Nc1ccc2ncnc(Nc3cccc(Cl)c3F)c2c1OCCC(C)(C)O [Example 14]', '50 to 500 nM');

From here, focus on the item given below.
For the molecule CN(C)C/C=C/C(=O)Nc1ccc2ncnc(Nc3cccc(Cl)c3F)c2c1OCCF [Example 4] , report GI50.
50 to 500 nM

* * *

Experiment: Ability to penetrate the blood-brain barrier: brain and whole blood concentration in SD rats
Type: in vivo
Settings: SD, brain; rat, PO 10 mg/kg, 2 hours after administration; read-out: Brain concentration
Experimental: In this assay, the pharmacokinetic characteristics and ability to penetrate the blood-brain barrier of the compounds of the present application were assayed after administration of some of the compounds of the present application to SD rats by single oral administration and intravenous injection. • 1. […] Brains were weighed and homogenized by adding 4-fold homogenizing solution (acetonitrile/water=1/1). […] The supernatant was diluted 2-fold with ultra-pure water, and the samples were analyzed by LC/MS.
quantityKind: concentration at 2 hours
For clarity, give the value followed by its unit.

Determine its reported concentration at 2 hours: COc1c(NC(=O)/C=C/CN(C)C)ccc2ncnc(Nc3cccc(Cl)c3F)c12
1470 ng/g

* * *

target: EGFR^WT kinase (Homo sapiens); construct: purchased Carna Biosciences 08-115; assay: EGFR^WT kinase assay (ULight peptide / Eu-PT66 antibody detection); assay type: biochemical
Sequence (P00533 25-1210): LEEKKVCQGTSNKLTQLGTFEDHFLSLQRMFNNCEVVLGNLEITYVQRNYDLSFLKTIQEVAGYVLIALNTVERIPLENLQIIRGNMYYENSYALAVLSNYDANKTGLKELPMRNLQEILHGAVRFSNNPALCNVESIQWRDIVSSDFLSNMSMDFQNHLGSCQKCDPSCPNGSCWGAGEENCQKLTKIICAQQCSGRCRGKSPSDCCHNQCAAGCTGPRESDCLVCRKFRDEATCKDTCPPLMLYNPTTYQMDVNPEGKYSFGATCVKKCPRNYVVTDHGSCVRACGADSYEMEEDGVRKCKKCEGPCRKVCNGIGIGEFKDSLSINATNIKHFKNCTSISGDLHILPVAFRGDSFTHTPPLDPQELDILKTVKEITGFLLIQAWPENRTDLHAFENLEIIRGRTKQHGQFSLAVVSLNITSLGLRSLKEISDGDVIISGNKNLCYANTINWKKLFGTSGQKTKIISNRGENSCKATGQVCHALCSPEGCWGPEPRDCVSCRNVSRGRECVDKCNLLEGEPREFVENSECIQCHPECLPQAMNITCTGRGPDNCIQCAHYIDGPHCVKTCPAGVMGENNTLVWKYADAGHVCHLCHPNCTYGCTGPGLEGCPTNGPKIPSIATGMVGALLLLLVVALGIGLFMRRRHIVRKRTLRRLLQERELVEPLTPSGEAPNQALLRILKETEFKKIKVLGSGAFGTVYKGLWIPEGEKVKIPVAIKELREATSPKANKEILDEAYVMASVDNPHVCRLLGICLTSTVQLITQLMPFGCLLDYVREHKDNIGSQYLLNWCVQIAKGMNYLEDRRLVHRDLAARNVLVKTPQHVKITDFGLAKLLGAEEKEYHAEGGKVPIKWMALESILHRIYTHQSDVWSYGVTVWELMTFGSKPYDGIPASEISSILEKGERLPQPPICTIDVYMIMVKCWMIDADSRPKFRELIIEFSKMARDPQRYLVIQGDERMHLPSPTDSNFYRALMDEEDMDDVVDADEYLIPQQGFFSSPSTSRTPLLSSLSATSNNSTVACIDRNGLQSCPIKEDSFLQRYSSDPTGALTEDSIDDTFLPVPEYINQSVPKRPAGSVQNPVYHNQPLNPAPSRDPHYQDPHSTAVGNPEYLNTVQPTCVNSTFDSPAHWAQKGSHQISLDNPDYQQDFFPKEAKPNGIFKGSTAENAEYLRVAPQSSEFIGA
pIC50: −log10 of the molar value.
Listing of recorded pIC50 by entry.

INSERT INTO results (smilesstr, result) VALUES
  ('CN(C)C/C=C/C(=O)Nc1ccc2ncnc(Nc3cccc(Cl)c3F)c2c1OCCO', '≥ 9.00');

For CN(C)C/C=C/C(=O)Nc1ccc2ncnc(Nc3cccc(Cl)c3F)c2c1OCCCF , write its pIC50.
≥ 9.00

Consider the molecule COCCCOc1c(NC(=O)/C=C/CN(C)C)ccc2ncnc(Nc3cccc(Cl)c3F)c12 . State its measured pIC50.
≥ 9.00

Look up and state reported pIC50 for CN(C)C/C=C/C(=O)Nc1ccc2ncnc(Nc3cccc(Cl)c3F)c2c1OCCCS(C)(=O)=O
≥ 9.00

Provide only the value of recorded pIC50 for COc1c(NC(=O)/C=C/CN(C)C)ccc2ncnc(Nc3ccc(Cl)c(Cl)c3F)c12
≥ 9.00

Please indicate pIC50 recorded for COc1c(NC(=O)/C=C/CN(C)C2CC2)ccc2ncnc(Nc3cccc(Cl)c3F)c12
8.00 to 9.00

* * *

assay: Pharmacokinetics in SD rats after single oral and intravenous administration; type: in vivo; conditions: SD, plasma; rat, PO 10 mg/kg, time point 2 hr; read-out: Plasma drug concentration
quantityKind: concentration at 2 hr (ng/mL)
Write the value in ng/mL as a bare number.

Please give measured concentration at 2 hr of the following entry: COc1c(NC(=O)/C=C/CN(C)C)ccc2ncnc(Nc3cccc(Cl)c3F)c12
249

* * *

# IC50 per entry for HER2 kinase (Homo sapiens, UniProt P04626)

As a guide, the following entries are already answered.
INSERT INTO measurements (smilesstr, quantitykind, result) VALUES
  ('CN1CCC[C@@H]1/C=C/C(=O)Nc1ccc2ncnc(Nc3ccc(Cl)c(Cl)c3F)c2c1OCCO', 'IC50', '0.001 to 0.01 µM'),
  ('CN(C)C/C=C/C(=O)Nc1ccc2ncnc(Nc3cccc(Cl)c3F)c2c1OCCF', 'IC50', '0.01 to 0.1 µM'),
  ('CSCCOc1c(NC(=O)/C=C/CN(C)C)ccc2ncnc(Nc3cccc(Cl)c3F)c12', 'IC50', '0.01 to 0.1 µM');

Report IC50 on HER2 kinase (Homo sapiens, UniProt P04626) for this entry: CN(C)C/C=C/C(=O)Nc1ccc2ncnc(Nc3cccc(Cl)c3F)c2c1OCCCS(C)(=O)=O
Sequence (P04626 23-1255): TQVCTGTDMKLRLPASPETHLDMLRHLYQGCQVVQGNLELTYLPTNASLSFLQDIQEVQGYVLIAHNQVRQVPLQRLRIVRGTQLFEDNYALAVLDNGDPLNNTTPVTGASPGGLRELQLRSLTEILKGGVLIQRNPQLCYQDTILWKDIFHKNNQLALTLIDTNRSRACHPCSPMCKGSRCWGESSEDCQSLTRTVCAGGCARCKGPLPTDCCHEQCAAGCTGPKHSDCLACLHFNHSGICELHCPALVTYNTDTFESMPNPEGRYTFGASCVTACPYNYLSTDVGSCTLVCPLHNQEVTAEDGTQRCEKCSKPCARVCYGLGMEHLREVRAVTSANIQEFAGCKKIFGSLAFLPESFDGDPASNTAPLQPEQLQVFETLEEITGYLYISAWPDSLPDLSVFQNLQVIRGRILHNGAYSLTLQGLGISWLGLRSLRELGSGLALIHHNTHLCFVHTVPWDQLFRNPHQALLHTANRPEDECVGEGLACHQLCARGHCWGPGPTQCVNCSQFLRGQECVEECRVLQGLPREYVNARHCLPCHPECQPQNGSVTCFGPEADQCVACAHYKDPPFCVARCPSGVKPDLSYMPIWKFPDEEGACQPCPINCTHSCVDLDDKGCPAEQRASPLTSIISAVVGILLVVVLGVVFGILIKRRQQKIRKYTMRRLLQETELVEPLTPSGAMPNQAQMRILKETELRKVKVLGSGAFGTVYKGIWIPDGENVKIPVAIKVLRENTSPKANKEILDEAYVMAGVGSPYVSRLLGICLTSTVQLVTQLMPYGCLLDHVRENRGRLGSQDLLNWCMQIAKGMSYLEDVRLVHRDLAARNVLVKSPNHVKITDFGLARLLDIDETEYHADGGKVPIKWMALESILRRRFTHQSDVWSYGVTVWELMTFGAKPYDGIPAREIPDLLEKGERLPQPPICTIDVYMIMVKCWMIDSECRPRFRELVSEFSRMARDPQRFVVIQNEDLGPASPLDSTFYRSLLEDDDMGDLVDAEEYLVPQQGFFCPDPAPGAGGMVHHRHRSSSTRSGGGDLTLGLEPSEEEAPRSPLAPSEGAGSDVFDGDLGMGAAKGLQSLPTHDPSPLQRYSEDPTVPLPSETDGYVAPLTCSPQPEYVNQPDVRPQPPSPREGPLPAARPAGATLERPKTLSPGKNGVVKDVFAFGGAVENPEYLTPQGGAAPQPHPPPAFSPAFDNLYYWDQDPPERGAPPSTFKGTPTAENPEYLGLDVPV
0.1 to 1 µM

State IC50 (HER2 kinase (Homo sapiens, UniProt P04626)) of CN(C)C/C=C/C(=O)Nc1ccc2ncnc(Nc3cccc(Cl)c3F)c2c1OCCO .
0.01 to 0.1 µM

Enter measured IC50, system HER2 kinase (Homo sapiens, UniProt P04626), for the molecule shown: CC(C)Oc1c(NC(=O)/C=C/CN(C)C)ccc2ncnc(Nc3cccc(Cl)c3F)c12
0.1 to 1 µM

// output IC50; input COc1c(NC(=O)/C=C/CN(C)C2CC2)ccc2ncnc(Nc3cccc(Cl)c3F)c12 ; system HER2 kinase (Homo sapiens, UniProt P04626)
0.1 to 1 µM

Fetch value of IC50 on HER2 kinase (Homo sapiens, UniProt P04626) for COc1c(NC(=O)/C=C/CN(C)C(C)C)ccc2ncnc(Nc3cccc(Cl)c3F)c12 .
0.01 to 0.1 µM

Name the value of IC50 reported for COCCOc1c(NC(=O)/C=C/CN(C)C)ccc2ncnc(Nc3cccc(Cl)c3F)c12 when tested on HER2 kinase (Homo sapiens, UniProt P04626).
0.01 to 0.1 µM

Find the measured IC50 of CN(C)C/C=C/C(=O)Nc1ccc2ncnc(Nc3cccc(Cl)c3F)c2c1OCC(F)F with HER2 kinase (Homo sapiens, UniProt P04626) as test system.
0.1 to 1 µM
